Form field: solubility (one value per entry).
# protocol-description: Solubility of the compound in PBS at pH 7.4
# Assay type: physicochemical
# condition-parameters: buffer
measure-name: solubility (µM)

given-smiles: CNC(=O)Nc1cc(Oc2cncc(OC)c2)c([C@H]2CCCOC2)cn1
observed: 303
//
given-smiles: CCOCCc1cnc(NC(=O)NC)cc1Oc1cncc(C)c1
observed: 500
//
given-smiles: CNC(=O)Nc1cc(Oc2cncc(C)c2)c([C@H]2C[C@@H](O)C2)cn1
observed: 332
//
given-smiles: CNC(=O)Nc1cc(Oc2cncc(C)c2)c(CCCCO)cn1
observed: 500
//
given-smiles: CNC(=O)Nc1cc(Oc2cncc(C)c2)c(CCCO)cn1
observed: 500
//
given-smiles: CNC(=O)Nc1cc(Oc2cncc(C)c2)c(CCO)cn1
observed: 450
